measure name: melting point

Past entries and their recorded results:
compound	melting point
CC(C)c1cccc(C(C)C)c1NC(=O)NS(=O)(=O)Oc1c(C(C)C)cccc1C(C)C	186 to 189 °C
CON=Cc1nn(-c2c(Cl)cc(C(F)(F)F)cc2Cl)c(N)c1S(C)=O (configuration not stated)	80 °C
CC1(C)CC2(CC(C)(C)N1)OC1(CCCCCCCCCCC1)NC2=O	97 °C
CCCn1nc(C(C)C)c(C(=O)OCc2ccccc2C(=O)c2ccccc2)c1Cc1ccc(-c2ccccc2S(=O)(=O)NC(=O)OCC(C)C)c(F)c1	52 to 59 °C
CSc1ccc(-c2cnn(-c3ccc(F)cc3)c(=O)c2OC(C)C)cc1	135 to 137 °C
Cc1nc(-c2cn(Cc3ccccc3)nn2)sc1C(=O)NCc1cccnc1	212 to 213 °C
Cc1cc(CNC(=O)c2sc(-n3cnn(Cc4ccc(F)cc4)c3=O)nc2C)[nH]n1	234 to 235 °C
Cc1ccc(C(=O)Nc2cc(-c3cccnc3)cc(C(F)(F)F)c2)cc1Nc1nccc(-c2cccnc2)n1	275 to 279 °C
N#Cc1cnc2sc(-c3ccc(C=O)cc3)cc2c1Nc1cccc2[nH]ccc12	> 245 °C
NC1CCN(c2nc(Nc3ccc(F)cc3F)c(C(=O)O)cc2F)C1 (configuration not stated)	249 to 250 °C

Inquiry: What value of melting point has been recorded for this entry: Cc1cc(-c2cccc(NC(=O)N[C@@H]3c4cc(C#N)ccc4OC(C)(C)[C@H]3O)c2)no1
Reply text: 110 to 120 °C

Inquiry: What value of melting point has been recorded for this entry: COC(=O)c1ccc2[nH]c3cnc(C(=O)OC)c(C)c3c2c1
Reply text: 199 to 204 °C

Inquiry: What value of melting point has been recorded for this entry: O=C1NCC(Cc2ccccc2O)O1 (configuration not stated)
Reply text: 93 to 95 °C

Inquiry: What value of melting point has been recorded for this entry: CN(C)CCOC(=O)c1ccc(CCN2CC=C(c3c[nH]c(-c4ccc(F)cc4)c3-c3ccncc3)CC2)cc1
Reply text: 178 to 181 °C

Inquiry: What value of melting point has been recorded for this entry: CCCCCCCCCCCCCCCCC[C@H](O)C[C@@H]1OC(=O)[C@H]1CC
Reply text: 80 to 82 °C

Inquiry: What value of melting point has been recorded for this entry: COc1cc(F)c(C)cc1C#N
Reply text: 99 to 101 °C

Inquiry: What value of melting point has been recorded for this entry: COc1ccc(Nc2cc(C)nc(SCC(N)=NO)n2)cc1
Reply text: 189 to 191 °C

Inquiry: What value of melting point has been recorded for this entry: CSC1=C([N+](=O)[O-])CCN1
Reply text: 207 to 209 °C

Inquiry: What value of melting point has been recorded for this entry: O=C(Nc1ccc(Oc2ccnc(NC3CCCCC3)n2)c2ccccc12)c1cc(F)cc(N2CCOCC2)c1
Reply text: 135 to 136 °C

Inquiry: What value of melting point has been recorded for this entry: CN1CCCC1Cc1cn(Cc2ccccc2)c2ccc(C(C#N)S(=O)(=O)N(C)C(c3ccccc3)c3ccccc3)cc12 (configuration not stated)
Reply text: 152 to 155 °C

Inquiry: What value of melting point has been recorded for this entry: c1ccc(COc2cc(OCC3CCCCC3)ccc2CNc2ccncc2)cc1
Reply text: 131 to 132 °C

Inquiry: What value of melting point has been recorded for this entry: COC(=O)Cn1c(=O)c(-c2c(Cl)cccc2Cl)cc2cnc(N)nc21
Reply text: 188 to 190 °C

----------
A collection of compounds and their measured melting point

Past entries and their recorded results:
compound	melting point
COc1cc(C2CCN(C[C@@H](C)O)CC2)ccc1Nc1ncc2ccc(-c3cc(Cl)ccc3OC)n2n1	94 to 108 °C
COC(=O)c1cc2c3c(cc(OCc4ccccc4)c2[nH]1)N(C(=O)OC(C)(C)C)C[C@H]3COC(C)=O	128 to 130 °C
CCC(CC)(CO)NC(=S)NC(=O)c1ccccc1	161 to 163 °C
Cn1ncnc1COc1nn2c(-c3cccc(F)c3)nncc2c1-c1ccccc1F	169 to 170 °C

Inquiry: What value of melting point has been recorded for this entry: NC1Cc2ccc(-c3ccc(=O)[nH]n3)cc2C1 (stereo not given)
Reply text: 228 to 229 °C

Inquiry: What value of melting point has been recorded for this entry: OCCCC1=NN(c2nc3ccccc3s2)C(O)(c2ccc(Cl)cc2)C1 (stereo not given)
Reply text: 132 to 134 °C

Inquiry: What value of melting point has been recorded for this entry: Cc1cc(Cc2cnc(N)nc2N)cc(C)c1N(C)C
Reply text: 162 to 163 °C

Inquiry: What value of melting point has been recorded for this entry: CCOC(=O)c1c(C(F)(F)F)nc(C)c(-c2ccccc2)c1O
Reply text: 82 to 84 °C

Inquiry: What value of melting point has been recorded for this entry: O=c1cc(-c2ccccc2)n(-c2ccccc2)c(-c2ccccc2)c1C(F)(F)F
Reply text: 222 to 225 °C

Inquiry: What value of melting point has been recorded for this entry: CC(C)(C)OC(=O)N(CCCc1ccc(Cl)cc1)C1CCCC1N (stereo not given)
Reply text: 95.3 to 111 °C

----------
measure name: melting point

Past entries and their recorded results:
molecule	melting point
CCOC(=O)CCn1ccn(C2CCc3ccccc3C2)c1=S (stereo unspecified)	71 to 73 °C
CSC(=C[N+](=O)[O-])N1CCCCC1	65 to 67 °C
CC(=O)c1c(C)[nH]c(-c2ccccc2)c1N=Cc1ccc(Cl)cc1	214 to 215 °C

Inquiry: What value of melting point has been recorded for this entry: O=C(NO)c1ccc(C(=O)NOCc2ccc3ccccc3c2)cc1
Reply text: 220 to 222 °C

Inquiry: What value of melting point has been recorded for this entry: Cc1cnc(C(=O)NCCc2ccc(S(N)(=O)=O)cc2)cn1
Reply text: 190 to 200 °C

Inquiry: What value of melting point has been recorded for this entry: CCc1c(C(=O)C(N)=O)c2c(OCC(=O)N(C)OCc3ccccc3)cccc2n1Cc1ccccc1
Reply text: 186 to 188 °C

Inquiry: What value of melting point has been recorded for this entry: ON=c1cc(-c2cn3cccc3cn2)oc2ccc(OCCc3ccc(F)cc3)cc12
Reply text: 248 to 250 °C

Inquiry: What value of melting point has been recorded for this entry: CCC1=Cc2cc3c(cc2C(c2ccc(N)cc2)=NN1C(C)=O)OCO3
Reply text: 136 to 138 °C

Inquiry: What value of melting point has been recorded for this entry: CC1=CC(=O)C(C(=O)Cc2ccccc2)C(=O)O1 (stereo unspecified)
Reply text: 150 to 151 °C

Inquiry: What value of melting point has been recorded for this entry: OCc1c(Cl)cc(Cl)cc1C(O)(Cn1ccnc1)c1ccc(Cl)cc1Cl (stereo unspecified)
Reply text: 208 to 211 °C

Inquiry: What value of melting point has been recorded for this entry: Clc1ccc2ccc(/C=C/c3cccc(CN4CCc5cccc(CCc6nnn[nH]6)c54)c3)nc2c1
Reply text: 141 to 144 °C

Inquiry: What value of melting point has been recorded for this entry: CC(=O)OC1CSC(Oc2cccc(-c3cccnc3F)c2)C(OC(C)=O)C1OC(C)=O (stereo unspecified)
Reply text: 116 °C

Inquiry: What value of melting point has been recorded for this entry: COc1ccc(C(=O)NCCCN(CCCNC(=O)c2ccc(OC)cc2)C(=O)c2ccc(OC)cc2)cc1
Reply text: 117 to 119 °C

Inquiry: What value of melting point has been recorded for this entry: O=C(O)COc1ccc(Cl)cc1-c1ccc(S(=O)(=O)N2CCOCC2)c(C(F)(F)F)c1
Reply text: 208 to 209 °C

Inquiry: What value of melting point has been recorded for this entry: CC(=O)C(C(C)=O)c1ccccc1
Reply text: 40 to 52 °C

Inquiry: What value of melting point has been recorded for this entry: O=C(NCC#CCN1CCOCC1)N1c2ccccc2-c2noc3c2C1CCC3 (stereo unspecified)
Reply text: 186 °C

----------
A collection of molecules and their measured melting point

Past entries and their recorded results:
molecule	assay value
CCC(=O)Nc1c(C(=O)c2cccc(C)c2)[nH]c2cc(Cl)ccc12	152 to 155 °C
COC1=C(Cl)C(=O)C(OC)=C(CCCCCC2=C(OC)C(=O)C(Cl)=C(OC)C2=O)C1=O	79.8 to 80 °C
CC1(C)CC(=C(c2ccc(O)cc2)c2ccc(I)cc2)CC(C)(C)C1	148 to 149 °C
Oc1ccc(Sc2cccc(O)n2)cc1	234 to 238 °C
CCOC(=O)/C(=N\OCc1ccccc1)c1csc(N)n1	133 to 134 °C
NC(=O)C[C@H](NC(=O)c1ccc(OCc2ccccc2)cc1OCc1ccccc1)C(=O)N1CCN(Cc2ccccc2)CC1	66 to 68 °C

Then this molecule:
Inquiry: What value of melting point has been recorded for this entry: CCN(Cc1ccc(Cl)nc1)C(=C[N+](=O)[O-])N(C)C(=O)OCOC(=O)c1ccccc1
Reply text: 62 to 63 °C

----------
measure name: melting point

Past entries and their recorded results:
compound	melting point
CCn1nc2c(N)nc3ccccc3c2c1CC(C)(C)O	223 to 225 °C
Cc1oc2cc(O)cc(O)c2c(=O)c1-c1ccc(F)cc1	222 to 223 °C
CS(=O)(=O)OC(c1ccc(C(O)(C(F)(F)F)C(F)(F)F)cc1)(C(F)(F)F)C(F)(F)F	160 °C

Inquiry: What value of melting point has been recorded for this entry: CS(=O)(=O)c1ccc(C(CC2CCCC2)C(=O)Nc2ccccn2)cc1F (stereo not drawn)
Reply text: 76 to 79 °C

Inquiry: What value of melting point has been recorded for this entry: CC(C)C(S)C(=O)NC1(C(=O)NC(Cc2ccc(-c3ccoc3)nc2)C(=O)O)CCCC1 (stereo not drawn)
Reply text: 52 to 55 °C
